- System: ASCT2 mRNA
- test-name: ASCT2 gene expression (RT-qPCR) after ASCT2 gene silencing in human colon cancer HTC-116 cells
- Format: cell-based
- run-parameters: treatment 6 h, 72 h, 0.17% Lipofectamine 2000 or 0.1% Injectin, FIG. 20A
measured-parameter: ASCT2 mRNA relative abundance

[[record]]
substance = "278/403/404 (sense UGCCACGGUCGCCUCUGAGAATT; antisense UUCUCAGAGGCGACCGUGGCATT; siRNA; sugars by position and backbone not given here; further chemistry not fully specified)"
meas_value = "significantly decreased"

[[record]]
substance = "278/405/406 (sense CCACGGUCGCCUCUGAGAATT; antisense UUCUCAGAGGCGACCGUGGTT; siRNA; sugars by position and backbone not given here; further chemistry not fully specified)"
meas_value = "significantly decreased"

[[record]]
substance = "267/356/402 (sense CCGGUCCUGUACCGUCCUCAA; antisense UUGAGGACGGUACAGGACCGG; chemistry not given here)"
meas_value = "significantly decreased"

